Read-out: Interleukin-8 (IL8), CXCL8 (gene 3576)
Assay: BSK_hDFCGF_IL8: BioMAP Diversity Plus: hDFCGF Assay for Interleukin-8 (IL8) Biomarker Activity (AID 2283058)
Details: primary human foreskin fibroblasts; actives raise or lower the signal
The source made the active and inactive calls. Rule for the calls: active = hit-call score of the fitted dose curve at least 0.9, where 1 is the maximum; inactive = score below 0.9.
A correct response names exactly one class from active, inactive

Recorded test outcome, item CCCCCCCCCCC inactive

So what was the verdict on Nc1ccc2c(c1)C(=O)c1ccccc1C2=O in this test? inactive

Would you mind telling me which call this test gave Cc1cccc(Nc2cc(Cl)nc(SCC(=O)O)n2)c1C ? inactive

For this compound, state the assay outcome: CN[C@H]1CC[C@@H](c2ccc(Cl)c(Cl)c2)c2ccc(S(N)(=O)=O)cc21 active

src = PubChem BioAssay (EPA / NIEHS)
